Reference source: patent US20250205324A1

biological target: HLA-A*0201 (Homo sapiens, UniProt P04439, D140Y/D185E/D98H/E176V/E277Q/G131W/G231S/I119V/I121R/I166T/I218V/L300P/L318F/N151K/N90K/P208A/P217A/Q86G/Q94H/R138H/R169H/T345S); construct: human tumoral cell T2 which expresses the HLA-A*0201 molecule; endogenous in cells; host or cells: T2 cells (human, TAP1/2 negative); assay: Affinity of the peptide to T2 cell line (HLA-A*0201 binding, FACS with anti-HLA-A2 antibody); details: T2 cells
Please assign a class to every record based on measured Concentration of peptide that induces 20% of HLA-A2 expression, with ranges low group (below 0.7 µM), middle group (0.7 µM to below 5 µM), high group (5 µM or more)

Item sequence | Qualitative label
IVWSDVTYV [MMP11-B1] | low group
TLDQKLFMV [ANKRD30A-B3] | low group
SLLSIQSYV [UBE2C-B2] | low group
AQIGIVAVV (listed as Homo sapiens) [OR51E2-H1] | high group
LVIGIILAV (listed as Homo sapiens) [CDH17-H1] | high group
ALYDVRTILL (listed as Homo sapiens) [UBEC2-H11] | high group
KVWSDVTPL (listed as Homo sapiens) [MMP11-H1] | low group
AINPELLQL (listed as Homo sapiens) [KIF2C-H1] | high group
ILLSIQSLL (listed as Homo sapiens) [UBE2C-H2] | middle group
YLILEYAPL (listed as Homo sapiens) [AURKA-H1] | high group
VMNPELLLL [KIF2C-B12] | low group
ALYSEILTV [ANKRD30A-B1] | low group
LILDTVHSL [ANKRD30A-B2] | middle group
ALIFGQLLL [TOP2A-B2] | middle group
RLQQELMTL (listed as Homo sapiens) [UBE2C-H3] | middle group
SLDQKLFQL (listed as Homo sapiens) [ANKRD30A-H3] | low group
VLNPELLML [KIF2C-B13] | low group
YLYDVRTAL [UBE2C-B11, b339 prints …] | middle group
KILDTVHSC (listed as Homo sapiens) [ANKRD30A-H2] | high group
SLPDRILDA (listed as Homo sapiens) [CDC20-H1, reference compound] | middle group
ALYDVRTIL (listed as Homo sapiens) [UBE2C-H1] | high group
QMNPELLTL [KIF2C-B11] | middle group
